Where a name gives a salt, the structure may show the parent alone.
Listed here: compounds with reported IC50 for Bcl-XL (Homo sapiens, UniProt Q07817).
The reply should contain only the number, in nM.

Answer with reported IC50 of CCOP(=O)(OCC)O[C@@H](c1ccccc1-c1ccc(Cl)cc1)C1CCN(c2ccc(C(=O)NS(=O)(=O)c3ccc(N[C@H](CCN4CCOCC4)CSc4ccccc4)c(S(=O)(=O)C(F)(F)F)c3)cc2)CC1 [Example 29, phosphate, hydrochloride salt]
12

Answer with reported IC50 of CN(CCO)CC[C@H](CSc1ccccc1)Nc1ccc(S(=O)(=O)NC(=O)c2ccc(N3CCC([C@@H](N)c4ccccc4-c4ccc(Cl)cc4)CC3)cc2)cc1S(=O)(=O)C(F)(F)F [Example 11, formic acid salt]
3

Answer with reported IC50 of O=C(NS(=O)(=O)c1ccc(N[C@H](CCN2CCN(CCOP(=O)(O)O)CC2)CSc2ccccc2)c(S(=O)(=O)C(F)(F)F)c1)c1ccc(N2CCC([C@@H](O)c3ccccc3-c3ccc(Cl)cc3)CC2)cc1 [Example 10]
1

Answer with reported IC50 of O=C(NS(=O)(=O)c1ccc(N[C@H](CCN2CCO[C@H](CO)C2)CSc2ccccc2)c(S(=O)(=O)C(F)(F)F)c1)c1ccc(N2CCC([C@@H](O)c3ccccc3-c3ccc(Cl)cc3)CC2)cc1 [Example 23, formic acid salt]
1

----------
Structures can show the parent of a compound that is named as a salt.
I'd be grateful if you could share measured IC50 for these entries.

Report the value of IC50 obtained on Bcl-2 (Homo sapiens) for CNCC(=O)N[C@@H](c1ccccc1-c1ccc(Cl)cc1)C1CCN(c2ccc(C(=O)NS(=O)(=O)c3ccc(N[C@H](CCN4CCOCC4)CSc4ccccc4)c(S(=O)(=O)C(F)(F)F)c3)cc2)CC1 [Example 34, hydrochloride salt] .
Sequence (P10415 1-204): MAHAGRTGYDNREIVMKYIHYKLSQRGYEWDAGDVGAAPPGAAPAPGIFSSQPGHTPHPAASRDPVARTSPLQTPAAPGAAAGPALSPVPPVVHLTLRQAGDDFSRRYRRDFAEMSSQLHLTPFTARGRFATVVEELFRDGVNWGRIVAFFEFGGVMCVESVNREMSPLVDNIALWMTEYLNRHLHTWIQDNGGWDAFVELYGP
27 nM

Report the value of IC50 obtained on Bcl-2 (Homo sapiens) for NCC(=O)N[C@@H](c1ccccc1-c1ccc(Cl)cc1)C1CCN(c2ccc(C(=O)NS(=O)(=O)c3ccc(N[C@H](CCN4CCOCC4)CSc4ccccc4)c(S(=O)(=O)C(F)(F)F)c3)cc2)CC1 [Example 35, hydrochloride salt] .
38 nM

Report the value of IC50 obtained on Bcl-2 (Homo sapiens) for CN(C)CC[C@H](CSc1ccccc1)Nc1ccc(S(=O)(=O)NC(=O)c2ccc(N3CCC([C@@H](O)c4ccccc4-c4ccc(Cl)cc4)CC3)cc2)cc1[N+](=O)[O-] [Example 2] .
0.3 nM

Report the value of IC50 obtained on Bcl-2 (Homo sapiens) for N[C@@H](c1ccccc1-c1ccc(Cl)cc1)C1CCN(c2ccc(C(=O)NS(=O)(=O)c3ccc(N[C@H](CCN4CCOCC4)CSc4ccccc4)c(S(=O)(=O)C(F)(F)F)c3)cc2)CC1 [Example 33, formic acid salt] .
30 nM

Report the value of IC50 obtained on Bcl-2 (Homo sapiens) for CCN(CCO)CC[C@H](CSc1ccccc1)Nc1ccc(S(=O)(=O)NC(=O)c2ccc(N3CCC([C@@H](N)c4ccccc4-c4ccc(Cl)cc4)CC3)cc2)cc1S(=O)(=O)C(F)(F)F [Example 12, formic acid salt] .
3 nM

----------
# STUDY_TARGET: Bcl-XL (Homo sapiens)
# Sequence (Q07817 1-209): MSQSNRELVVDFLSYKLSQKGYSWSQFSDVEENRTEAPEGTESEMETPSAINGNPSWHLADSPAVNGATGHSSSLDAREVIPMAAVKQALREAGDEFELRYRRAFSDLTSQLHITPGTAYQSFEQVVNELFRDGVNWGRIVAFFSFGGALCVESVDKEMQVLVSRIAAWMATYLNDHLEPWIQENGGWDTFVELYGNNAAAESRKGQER
Structures can show the parent of a compound that is named as a salt.
METRIC: pIC50
Interpret pIC50 as the negative base-10 log of the concentration measured in mol/L.

Answer with reported pIC50 of CC(C)(C)OP(=O)(O)OCO[C@@H](c1ccccc1-c1ccc(Cl)cc1)C1CCN(c2ccc(C(=O)NS(=O)(=O)c3ccc(N[C@H](CCN4CCOCC4)CSc4ccccc4)c(S(=O)(=O)C(F)(F)F)c3)cc2)CC1 [Example 28]
8.70

Answer with reported pIC50 of CN(CCO)CC[C@H](CSc1ccccc1)Nc1ccc(S(=O)(=O)NC(=O)c2ccc(N3CCC([C@@H](O)c4ccccc4-c4ccc(Cl)cc4)CC3)cc2)cc1S(=O)(=O)C(F)(F)F [Example 3]
9.00

Answer with reported pIC50 of O=C(NS(=O)(=O)c1ccc(N[C@H](CCN2CCOCC2)CSc2ccccc2)c(S(=O)(=O)C(F)(F)F)c1)c1ccc(N2CCC([C@@H](O)c3ccccc3-c3ccc(Cl)cc3)CC2)cc1 [Example 15]
9.00

Answer with reported pIC50 of CN(C)CC[C@H](CSc1ccccc1)Nc1ccc(S(=O)(=O)NC(=O)c2ccc(N3CCC([C@@H](O)c4ccccc4-c4ccc(Cl)cc4)CC3)cc2)cc1[N+](=O)[O-] [Example 2]
9.00

Answer with reported pIC50 of O=C(NS(=O)(=O)c1ccc(N[C@H](CCN(CCOP(=O)(O)O)CCOP(=O)(O)O)CSc2ccccc2)c(S(=O)(=O)C(F)(F)F)c1)c1ccc(N2CCC([C@@H](O)c3ccccc3-c3ccc(Cl)cc3)CC2)cc1 [Example 7, phosphate), hydrochloride salt]
9.00

Answer with reported pIC50 of N[C@@H](c1ccccc1-c1ccc(Cl)cc1)C1CCN(c2ccc(C(=O)NS(=O)(=O)c3ccc(N[C@H](CCN4CCOCC4)CSc4ccccc4)c(S(=O)(=O)C(F)(F)F)c3)cc2)CC1 [Example 33, formic acid salt]
7.48

Answer with reported pIC50 of CNCC(=O)N[C@@H](c1ccccc1-c1ccc(Cl)cc1)C1CCN(c2ccc(C(=O)NS(=O)(=O)c3ccc(N[C@H](CCN4CCOCC4)CSc4ccccc4)c(S(=O)(=O)C(F)(F)F)c3)cc2)CC1 [Example 34, hydrochloride salt]
7.72

Answer with reported pIC50 of COP(=O)(O)O[C@@H](c1ccccc1-c1ccc(Cl)cc1)C1CCN(c2ccc(C(=O)NS(=O)(=O)c3ccc(N[C@H](CCN4CCOCC4)CSc4ccccc4)c(S(=O)(=O)C(F)(F)F)c3)cc2)CC1 [Example 30, phosphate, hydrochloride salt]
9.00

Answer with reported pIC50 of CCN(CCOP(=O)(O)O)CC[C@H](CSc1ccccc1)Nc1ccc(S(=O)(=O)NC(=O)c2ccc(N3CCC([C@@H](O)c4ccccc4-c4ccc(Cl)cc4)CC3)cc2)cc1S(=O)(=O)C(F)(F)F [Example 8, phosphate, hydrochloride salt]
9.00

Answer with reported pIC50 of CN(C)[C@@H](c1ccccc1-c1ccc(Cl)cc1)C1CCN(c2ccc(C(=O)NS(=O)(=O)c3ccc(N[C@H](CCN4CCOCC4)CSc4ccccc4)c(S(=O)(=O)C(F)(F)F)c3)cc2)CC1 [Example 36, hydrochloride salt]
7.74

Answer with reported pIC50 of CCN(CCO)CC[C@H](CSc1ccccc1)Nc1ccc(S(=O)(=O)NC(=O)c2ccc(N3CCC([C@@H](O)c4ccccc4-c4ccc(Cl)cc4)CC3)cc2)cc1S(=O)(=O)C(F)(F)F [Example 4]
9.10

Answer with reported pIC50 of NCC(=O)N[C@@H](c1ccccc1-c1ccc(Cl)cc1)C1CCN(c2ccc(C(=O)NS(=O)(=O)c3ccc(N[C@H](CCN4CCOCC4)CSc4ccccc4)c(S(=O)(=O)C(F)(F)F)c3)cc2)CC1 [Example 35, hydrochloride salt]
7.66

Answer with reported pIC50 of O=C(NS(=O)(=O)c1ccc(N[C@H](CCN(CCO)CCO)CSc2ccccc2)c(S(=O)(=O)C(F)(F)F)c1)c1ccc(N2CCC([C@@H](O)c3ccccc3-c3ccc(Cl)cc3)CC2)cc1 [Example 5, formic acid salt]
9.00

Answer with reported pIC50 of O=C(NS(=O)(=O)c1ccc(N[C@H](CCN2CCOCC2)CSc2ccccc2)c([N+](=O)[O-])c1)c1ccc(N2CCC([C@@H](O)c3ccccc3-c3ccc(Cl)cc3)CC2)cc1 [Example 16]
9.00

Answer with reported pIC50 of O=C(NS(=O)(=O)c1ccc(N[C@H](CCN2CCN(CCO)CC2)CSc2ccccc2)c(S(=O)(=O)C(F)(F)F)c1)c1ccc(N2CCC([C@@H](O)c3ccccc3-c3ccc(Cl)cc3)CC2)cc1 [Example 1, formic acid salt]
9.00

Answer with reported pIC50 of CCN(CCO)CC[C@H](CSc1ccccc1)Nc1ccc(S(=O)(=O)NC(=O)c2ccc(N3CCC([C@@H](N)c4ccccc4-c4ccc(Cl)cc4)CC3)cc2)cc1S(=O)(=O)C(F)(F)F [Example 12, formic acid salt]
8.52

Answer with reported pIC50 of N[C@@H](c1ccccc1-c1ccc(Cl)cc1)C1CCN(c2ccc(C(=O)NS(=O)(=O)c3ccc(N[C@H](CCN4CCN(CCO)CC4)CSc4ccccc4)c(S(=O)(=O)C(F)(F)F)c3)cc2)CC1 [Example 13, formic acid salt]
7.82

----------
# STUDY_TARGET: Bcl-2 (Homo sapiens)
pIC50: −log10 of the molar value. Structures can show the parent of a compound that is named as a salt.
Answer no if pIC50 is under 9, and yes if it is 9 or more.

Would you say O=C(NS(=O)(=O)c1ccc(N[C@H](CCN2CCOC[C@@H]2CO)CSc2ccccc2)c(S(=O)(=O)C(F)(F)F)c1)c1ccc(N2CCC([C@@H](O)c3ccccc3-c3ccc(Cl)cc3)CC2)cc1 [Example 25, hydrochloride salt] shows pIC50 at minimum 9?
yes

Would you say CCOP(=O)(OCC)O[C@@H](c1ccccc1-c1ccc(Cl)cc1)C1CCN(c2ccc(C(=O)NS(=O)(=O)c3ccc(N[C@H](CCN4CCOCC4)CSc4ccccc4)c(S(=O)(=O)C(F)(F)F)c3)cc2)CC1 [Example 29, phosphate, hydrochloride salt] shows pIC50 at minimum 9?
no

Would you say O=C(NS(=O)(=O)c1ccc(N[C@H](CCN2CCOC[C@H]2CO)CSc2ccccc2)c(S(=O)(=O)C(F)(F)F)c1)c1ccc(N2CCC([C@@H](O)c3ccccc3-c3ccc(Cl)cc3)CC2)cc1 [Example 24, formic acid salt] shows pIC50 at minimum 9?
yes

Would you say O=C(NS(=O)(=O)c1ccc(N[C@H](CCN(CCOP(=O)(O)O)CCOP(=O)(O)O)CSc2ccccc2)c(S(=O)(=O)C(F)(F)F)c1)c1ccc(N2CCC([C@@H](O)c3ccccc3-c3ccc(Cl)cc3)CC2)cc1 [Example 7, phosphate), hydrochloride salt] shows pIC50 at minimum 9?
no

Would you say O=C(NS(=O)(=O)c1ccc(N[C@H](CCN2CCN(CCO)CC2)CSc2ccccc2)c(S(=O)(=O)C(F)(F)F)c1)c1ccc(N2CCC([C@@H](O)c3ccccc3-c3ccc(Cl)cc3)CC2)cc1 [Example 1, formic acid salt] shows pIC50 at minimum 9?
yes
